// PBM binding z-score lookup, one value per entry
- Test system: PPARg:RXRa 30nM:10nM, anti-RXR (NR concentration 30 nM, RXRa partner concentration 10 nM)
- test_name: PBM binding z-score (relative to random genomic background probes); higher = stronger binding; sequences stand for … in GC…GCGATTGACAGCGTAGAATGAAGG
Lab note: jot the number down without any unit.

For the record CCTGCTAGGTCGATGGTCAGCTAAAGCAGCTCGC , what value of PBM binding z-score is listed for PPARg:RXRa 30nM:10nM, anti-RXR (NR concentration 30 nM, RXRa partner concentration 10 nM)?
-0.649

What do we get for AGAATGTGGTTAAGATCAGGGAAACAGAATACAT ?
0.299

Further, for GCTGCTAGGTCAGGTTGGTCCGCTAACGGGTACG ?
-0.421

And the next one, GTACCAAGGCGAATAGGTCGTTGATGAGTAGGCG ?
-0.512

Also TCAGACAGGTGAAGGTAACTGAGGTACGCAGTCG , if possible.
3.74

Moving on to the next sequence: TTACCAAGGTGAAAGGTAGTTGATGCACGCCTTG
2.81

Attention now turns to another entry.
Find PBM binding z-score (PPARg:RXRa 30nM:10nM, anti-RXR (NR concentration 30 nM, RXRa partner concentration 10 nM)) for the entry ACTAGTTGGTCAGCGGAGGTCACACACAATTCGG
1.3

* * *

- Test system: VDR:RXRa (NR concentration 270 nM, RXRa partner concentration 90 nM)
- test_name: PBM binding z-score (relative to random genomic background probes); higher = stronger binding; sequences stand for … in GC…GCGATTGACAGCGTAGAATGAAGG
Note to self: values exactly at 1 are Satisfied. So PBM binding z-score at or above 1 is Satisfied, below is Not satisfied.

Example entries begin here.
Check if PBM binding z-score >= 1 (inclusive). Item: GCGACTGGGACATCAGCAGGTTACCATAACTTAA
Not satisfied

Then this sequence: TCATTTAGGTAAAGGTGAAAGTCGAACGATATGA
Satisfied

Lookup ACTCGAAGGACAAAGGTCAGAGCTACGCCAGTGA
Satisfied

---
Hi, just wondering whether ACAGACAGGTGAGTAAAGGTAACTCAGCTGGACG shows PBM binding z-score of 1 or higher.
Not satisfied

Moving on to GCATATAGGTAATACGAGGTGAAAGTCCGATTGT
Not satisfied

Next sequence up: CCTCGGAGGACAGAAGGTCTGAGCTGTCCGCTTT
Not satisfied

Queued: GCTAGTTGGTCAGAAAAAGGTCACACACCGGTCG
Satisfied

Consider next the sequence CCGACTGGGGCAGAAGGGTTACCATACCATCCGG in the same way.
Not satisfied

* * *

- Test system: PPARg:RXRa 30nM:10nM, anti-RXR (NR concentration 30 nM, RXRa partner concentration 10 nM)
- test_name: PBM binding z-score (relative to random genomic background probes); higher = stronger binding; sequences stand for … in GC…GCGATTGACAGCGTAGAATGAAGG
This listing pairs sequences with measured PBM binding z-score.

Before answering, review these 4 worked examples.
I'd like to know its PBM binding z-score. The sequence in question is CCAGACAGGTGAAAGCTAACTCAGTCTGGTACGC
-0.35

What do you have for CCTATTAGTTGACCATAAGGGCAACCGAAGCTCG ?
-0.00379

Repeat with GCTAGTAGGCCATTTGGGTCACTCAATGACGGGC
0.459

Repeat with TCTTGTAGATCAGGCAGGTTAAGAAAGCCTGAGT
2.52

// switching to the query sequence
Please look up its PBM binding z-score: CCGACTGCGGCAAGGTTACCATAACGCACAGCCA
-0.715

* * *

Listing: PBM binding z-score of selected sequences
- Tested on: FXR:RXRa (NR concentration 270 nM, RXRa partner concentration 90 nM)
- test_name: PBM binding z-score (relative to random genomic background probes); higher = stronger binding; sequences stand for … in GC…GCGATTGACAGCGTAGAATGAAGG
Enter the number alone.

Reference set, count: 8
Notebook entry, FXR:RXRa (NR concentration 270 nM, RXRa partner concentration 90 nM) assay: PBM binding z-score of GCTTGTAGATCAAGGTTAAGAAAGACTAAGCTAA = ?
0.0354

Try the sequence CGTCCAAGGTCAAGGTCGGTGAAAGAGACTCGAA
7.27

Same for GCATATCGGTAATACAAGGTGAAAGTCCGATTGT
0.694

Would you mind doing CCCACTGGGCCAAAGGTCATTGATTCCAATGCTC as well?
4.95

Further, for GCAGACAGGTGAAACGCATGTAACTCAGGGTGGC ?
-0.379

Next: ACAGACAGGTGAGTGAAGGTAACTCAGCTGGACG
0.377

One more sequence: GCTAGTTGTTCAGTAAAAGGTCACACACCGGTCG
3.26

And what about the sequence ACTCGGAGGACAAAGGTCAGATCTACGCCAGTGA ?
4.14

More entries:
Requested read-out PBM binding z-score, target or system FXR:RXRa (NR concentration 270 nM, RXRa partner concentration 90 nM), entry TCAGACTGGTGAAGGTAACTCAGGTACGCAGTCG
-0.62

Next sequence up: CATCCTAGGTCAGGGCCAGTATAGGAGGAACGTT
2.24

Now the sequence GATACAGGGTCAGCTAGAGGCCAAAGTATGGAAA
5.01

Further, for ACTCGGAGGACAAAAGTCAGAGCTACGCCAGTGA ?
-0.293

* * *

- Test system: PPARa:RXRa (NR concentration 270 nM, RXRa partner concentration 90 nM)
- test_name: PBM binding z-score (relative to random genomic background probes); higher = stronger binding; sequences stand for … in GC…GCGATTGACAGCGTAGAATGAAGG
Parameter PBM binding z-score: see the listing below.
Keep it simple and answer with nothing but the number.

For orientation, consider the following solved cases.
State its PBM binding z-score on PPARa:RXRa (NR concentration 270 nM, RXRa partner concentration 90 nM): CCAGACAGGTGAGAAGTTAACTCAGCCTCGATTA
0.706

Next sequence up: TAGCCTATGTCATGGGCCAGTATACCACGCGAAC
-0.267

Moving on to TCTTGAAGATCAACAGGAGGTTAAGAAAGATCGA
1.41

Could you do the same for ACTTACGGGTAAACGAGGTTATAGCACGCGTATA , please?
2.01

Query CCGACTGGTGCAAAGGTTACCATACTCAGTACGA next
3.86

Continuing:
Form entry - test system: PPARa:RXRa (NR concentration 270 nM, RXRa partner concentration 90 nM); read-out: PBM binding z-score; sequence: TCATATAGGTAAATGCTAGGTCAAAGTCCGATCT
2.57

What do you get for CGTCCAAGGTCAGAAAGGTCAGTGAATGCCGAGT ?
4.94

What about this sequence? GCGACTGAGGCATCAGCAGGTTACCATAACTTAA
-0.272

Request: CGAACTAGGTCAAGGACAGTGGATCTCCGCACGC
4.31

Okay, and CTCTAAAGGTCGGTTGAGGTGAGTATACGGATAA ?
2.87

Next: CCTACTGGGCCAAGGTCAATGATCAGTCAAAGCA
3.85

Try this sequence too: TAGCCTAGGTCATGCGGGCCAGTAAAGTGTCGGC
3.69

* * *

# reported PBM binding z-score; entries follow
- System: PPARg:RXRa (NR concentration 180 nM, RXRa partner concentration 90 nM)
- test_name: PBM binding z-score (relative to random genomic background probes); higher = stronger binding; sequences stand for … in GC…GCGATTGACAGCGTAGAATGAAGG

Examples from the recorded data:
Missing value: PBM binding z-score, PPARg:RXRa (NR concentration 180 nM, RXRa partner concentration 90 nM), entry AGAATGAGGTTATACGTAGATCAGGCAAGAAAGT . Fill in?
1.97

Try this sequence too: ATATGTAGGTTAAGGGTCAGTCAGGTTGGTTCGC
11

Also, ATTACAGGGTCATCGTAGGCCAGAGTACGCACAG please.
7.1

Next:
Hi! What's the reported PBM binding z-score for CAAACTAGGTCACTGGAAGGTCAAAGTCCGCATG on PPARg:RXRa (NR concentration 180 nM, RXRa partner concentration 90 nM)?
9.17

Then AATACTGGGTCATCGTAGGCCAGAGTACGCACAG ?
6.86

# iterate: CAAACTAGGTCACGAAAGGTCTAAGTCGAATGAC
9.08

Record: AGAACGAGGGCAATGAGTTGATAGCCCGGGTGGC
1.01

Try this sequence next: TCGAGTAGGTTGGGGGCATTCAGAATGGCGTCGA
0.614

Same thing, different sequence: ACTAGCTGGCCAAGTTTGGGTCACTCAAACAAAG
-0.347

Can you handle CCTGCTAGGGCATGGTCAGCTAATCTACAGTATG next?
0.0735

Then this sequence: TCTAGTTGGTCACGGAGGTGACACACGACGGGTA
1.64

Also, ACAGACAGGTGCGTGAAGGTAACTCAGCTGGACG please.
0.476

And CCTAGCAGGCCAATCTGGGGCACTCAAGGCTTGA ?
0.549

Proceed to CGTGCTAGGTCATGGTCAGCTAATCTACAGTATG
2.98

How about this sequence: GGTTGTAGATCAAGGTTAAGAAAGACTAAGCTAA
0.938

Could you do the same for TCTAGTTGGTCACAGGTCACACACTCGAAATGCG , please?
7.08

Next: ACAGACAGGTAAGTGAAGGTAACTCAGCTGGACG
0.687

And the next one, CGAACGAGGGCATGACTTGATAGCAAATGCCGAT ?
1.28

Now try GGAACGAGGGCAGTCGAGTTGATAGCATGGCGAT .
0.453
